Biological target: RANBP9; note: reference of the scale not given here
Assay: pooled miR-30 sensor sort-seq; sequence = guide strand
Conditions: shRNA
experimental.endpoint: sensor-assay potency score (higher = more potent)
Please respond with just the number, no unit label.

Here's what some known entries look like.
| sequence.code | quantitative.result |
| --- | --- |
| TAATTCTTCTAGAACGGTCTGG | 0.443 |
| TAACAGGATAACTGTCTTGAGA | -1.15 |
| TTCGGTGTCACAATCTTCCATT | -0.713 |
| TAACTGTCTTGAGACTTTGGAC | -0.743 |
| TTTCTTTCAAGTAAACTTGGGT | -0.134 |
| TAGTAGACTGAATGCATCCTTC | -0.448 |

# context switch: different sequence, same sensor-assay potency score (higher = more potent)
stdin: What sensor-assay potency score (higher = more potent) value was documented for this sequence, TTTTGTATCATGGTCTGCCATT ?
stdout: -1.46
